Test system: WSU-DLCL2 (B-Cell Non-Hodgkin's Lymphoma)
Test: combination Emax (second highest fraction inhibited in the dose matrix, 72 h); higher = more inhibition; extreme values may be limits of the assay
METRIC: combination Emax
Numbers only.

These solved cases illustrate the format of a correct answer.
[
  {
    "COMPOUND": "CC1(C)CCC(CN2CCN(c3ccc(C(=O)NS(=O)(=O)c4ccc(NCC5CCOCC5)c([N+](=O)[O-])c4)c(Oc4cnc5[nH]ccc5c4)c3)CC2)=C(c2ccc(Cl)cc2)C1 [Venetoclax] + CCN(CCO)CCCOc1ccc2c(Nc3cc(CC(=O)Nc4cccc(F)c4)[nH]n3)ncnc2c1 [AZD2811] (first compound max 1 µM, 7x7, partner max 1 µM)",
    "combination Emax": 0.758
  },
  {
    "COMPOUND": "C[C@@H]1COCCN1c1cc(C2([S@](C)(=N)=O)CC2)nc(-c2ccnc3[nH]ccc23)n1 [AZD6738] + O=C(c1cc(Cc2n[nH]c(=O)c3ccccc23)ccc1F)N1CCN(C(=O)C2CC2)CC1 [Olaparib] (first compound max 10 µM, 7x7, partner max 10 µM)",
    "combination Emax": 0.92
  }
]

compound CN(CCO)CC[C@H](CSc1ccccc1)Nc1ccc(S(=O)(=O)NC(=O)c2ccc(N3CCC([C@@H](O)c4ccccc4-c4ccc(Cl)cc4)CC3)cc2)cc1S(=O)(=O)C(F)(F)F [AZD4320] + Cc1cc2ncnn2cc1Nc1ncc2c(n1)n(C1CCOCC1)c(=O)n2C [AZD7648] (first compound max 1 µM, 7x7, partner max 10 µM) , combination Emax observed: 0.744
